The reported numbers originate from a melting point compilation (Tetko et al.; mined from patent text by program, amines drawn as free bases though some values may be those of a salt).

// reported melting point per item
Result type: melting point

INSERT INTO measurements (compound, measured_result) VALUES
  ('CCc1ccc(-n2c(-c3ccccn3)nc(SC)c(C#N)c2=O)cc1', '172 to 175 °C'),
  ('Cc1ccc(C(C)N2C(=O)c3ccccc3C2=O)cc1 (centres undefined)', '65 to 66 °C'),
  ('CCCCS(=O)c1nc[nH]n1 (centres undefined)', '82 to 83 °C'),
  ('COc1ccc(F)cc1C(C)(C)CC(O)(Cn1cnc(=O)c2ccccc21)C(F)(F)F (centres undefined)', '118 to 121 °C'),
  ('Nc1ncnc2c1c(-c1cccc(O)c1)cn2C1CC(CN2CCCC2)C1 (centres undefined)', '193 to 194 °C'),
  ('CCn1cnc2c(Nc3cccc(N)c3)nc(N[C@H]3CC[C@H](O)CC3)nc21', '149 to 151 °C'),
  ('CC(C)(C)C(NC(=O)c1ccc(Cl)cc1)Nc1c(Nc2cccnc2Cl)c(=O)c1=O (centres undefined)', '259 to 261 °C'),
  ('COc1ccc(S(=O)(=O)n2ccc3cccc(-c4ccc(C#N)cc4)c32)cc1', '164 to 166 °C'),
  ('Clc1cc(-c2ccccc2)nc2sccc12', '83 to 85 °C'),
  ('O=C(O)CCCc1ccc(-c2ccc(Cl)cc2)cc1', '187 to 190 °C'),
  ('CS(=O)(=O)N(Cl)C(=O)c1cc(Oc2ccc(Cl)cc2Cl)ccc1[N+](=O)[O-]', '161 to 163 °C'),
  ('CCCCCN1Cc2cccc(S(=O)(=O)NC(=O)Nc3nc(OC)cc(OC)n3)c2S1(=O)=O', '197 to 203 °C'),
  ('CC1=C(C(=O)Nc2cc(C(=O)OC(C)C)ccc2F)SCCO1', '132 to 135 °C'),
  ('O=C1N(Cc2cccc(C(F)(F)F)n2)c2ccccc2C12COc1cc3c(cc12)OCCO3 (centres undefined)', '195 to 196 °C');

----------
Result type: melting point

INSERT INTO results (compound, result_type, measured_result) VALUES
  ('CC(C)C(=O)OC1C(CO)OC(n2cnc3c(N)ncnc32)C1OC(=O)C(C)C (stereo not given)', 'melting point', '207 to 208 °C'),
  ('COc1cccc(NC(=O)NC2N=C(C(C)C)c3ccccc3N(CC(=O)N3CC4CCC(CC4)C3)C2=O)c1 (stereo not given)', 'melting point', '139 to 142 °C'),
  ('C=CCSc1c(O)cc(C)oc1=O', 'melting point', '98 to 98.5 °C'),
  ('COc1ccc(N=Cc2cc(OC)c(OC)c(OC)c2)cc1', 'melting point', '78 to 86 °C'),
  ('O=C1OC2CC3CC(C2)OC1O3', 'melting point', '140 to 143 °C');

----------
Attribute: melting point
Result type: melting point

INSERT INTO assay_data (compound, measured_result) VALUES
  ('Cn1cc(C(=O)O)c(=O)c2cc3cc(F)c(N4CCNC(c5ccc(OCCO)cc5)C4)c(F)c3nc21 (racemic)', '226 to 228 °C'),
  ('c1ccc(-c2ccc3cnc(NCc4cccnc4)nn23)cc1', '201 to 203 °C'),
  ('C=C1COc2ccc(C(C)=O)cc2C(S(=O)(=O)c2ccccc2)C1 (stereo not drawn)', '124 to 125 °C');

----------
Result type: melting point

INSERT INTO assay_data (smiles, result_type, measured_result) VALUES
  ('CCCCOC(=O)Cc1ccc(N[C@@H](CCC(N)=O)C(=O)O)cc1', 'melting point', '177 to 179 °C'),
  ('Cc1cc(C(=O)/C=C/C(=O)O)c(C)o1', 'melting point', '144 to 147 °C'),
  ('Cc1cc2oc(S(=O)(=O)N=CN(C)C)cc2cn1', 'melting point', '175 to 177 °C'),
  ('CCCNc1nc(N)cc(Cl)n1', 'melting point', '92 to 94 °C'),
  ('O=C(NC(=O)c1c(F)cccc1F)Nc1ccc(Cl)c(C(F)(F)F)c1', 'melting point', '220 °C');

----------
Result type: melting point

INSERT INTO assay_data (compound, measured_result) VALUES
  ('Cc1c(Br)cccc1N1Cc2cc(C(C)(C)C)sc2C1=O', '185 to 186 °C'),
  ('CCCCNS(=O)(=O)CC(O)C(O)C(CC1CCCCC1)NC(=O)c1cnccn1 (stereo not given)', '178 to 180 °C'),
  ('C[C@@H](n1cnc2cccc(F)c2c1=O)[C@](O)(Cn1cncn1)c1ccc(F)cc1F', '94 to 122 °C'),
  ('CCC(=O)Nc1cccc(-c2c(C)c(NC(=O)CC(C)(C)C)c(C)c3c2OCC3c2ccc(C(C)C)cc2)c1 (stereo not given)', '237 to 239 °C'),
  ('O=C(O)c1ccc(F)nc1F', '170 to 171 °C'),
  ('CC(=O)NC[C@@H]1CCCc2cc(S(=O)(=O)c3ccccc3)cc(F)c21', '152 to 154 °C'),
  ('CC(=O)Nc1c(C(=O)c2ccc(O)c(O)c2)[nH]c2cc(Cl)ccc12', '193 to 200 °C'),
  ('CCCc1nn(C)c2c(=O)n(CCOc3ccc(SC(C)(C)C(=O)OCC)cc3)c(C)nc12', '106 to 108 °C'),
  ('COc1ccc(/C(=C/C(=O)N2CCN(C(=O)c3cc(OC)c(OC(C)=O)c(OC)c3)CC2)c2ccccc2Cl)cc1', '191 to 194 °C'),
  ('CCC(C)N(C)C(=O)c1cc(-c2ccc(C)c(C)c2)c2sccc2c1 (stereo not given)', '120 °C'),
  ('CN1CCN(C(=O)C(C)(C)OCc2nn(Cc3ccccc3)c3ccccc23)CC1', '97 to 98 °C'),
  ('COc1ccc(CSc2cccc(N)c2)cc1', '85 to 86 °C'),
  ('CSc1cc(C)nc(SC)c1NC(=O)CBr', '171 to 172 °C'),
  ('COc1c(N2CC(C)C(N)C(C)C2)c(F)cc2c(=O)c(C(=O)O)cn(C3CC3)c12 (stereo not given)', '178 to 180 °C'),
  ('CC(C)c1[nH]n(-c2c(Cl)cc(Cl)cc2Cl)c2nc(Cc3ccc(NC(=O)N4CCN(C)CC4)cc3)nc(=O)c1-2', '251 to 253 °C'),
  ('CCCCCN(CCC12CC3CC(CC(C3)C1)C2)C(=O)NCC(Cc1ccccc1)Cc1ccncc1 (stereo not given)', '111 to 116 °C'),
  ('CCCC1(CCC)c2ccccc2-c2ccc(O)cc21', '116 to 117 °C'),
  ('Cc1cc(CC(C)NCCC(c2ccccc2)c2ccccc2)ccc1O (stereo not given)', '115 to 118 °C'),
  ('CN1C(=O)C2(COc3cc4c(cc32)OCCO4)c2c(C(N)=O)cccc21 (stereo not given)', '> 250 °C'),
  ('Cn1c(-c2ccccc2)cc(O)c(C(=N)c2ccccc2)c1=O', '238 to 240 °C'),
  ('Cc1ccc(N(c2ccc(C)cc2)c2ccc(C(O)(CCCO)CCCO)cc2)cc1', '131 to 132 °C'),
  ('O=C(O)c1cc(C#Cc2ccccc2)c(C(=O)O)cc1C#Cc1ccccc1', '> 360 °C'),
  ('c1ccc2c(c1)C[C@H]1CSC(=Nc3cc[nH]n3)N1C2', '161 °C'),
  ('CC(C)(C)C1=NN(c2ccc(C(=O)O)cc2)C(c2cccc(Br)c2)C1 (stereo not given)', '216 °C'),
  ('CCCCCCCCCCCC(CC(=O)C(CCCCCC)C(=O)OC)OC1CCCCO1 (stereo not given)', '37 to 38 °C'),
  ('CCCCCCCOC(=O)C(=C1NCCCS1)[N+](=O)[O-]', '59 to 60 °C'),
  ('CC(=O)ON=C(N)c1cccc(OC(C)=O)c1', '128 °C'),
  ('O=C(O)CCCC12CCC(=O)N1C(=O)CC2', '178 to 180 °C'),
  ('COc1ccc(C2=Cc3ccc(OCc4ccccc4)cc3OC2)cc1', '152 to 154 °C'),
  ('CC(C)(C)OC(=O)NCC(=O)Nc1ccc(O)cc1', '152 to 154 °C'),
  ('Nc1nc2[nH]c(CCCCCCc3ccc(C(=O)N[C@@H](CCC(=O)O)C(=O)O)s3)cc2c(=O)[nH]1', '183 to 184 °C'),
  ('COc1c(C)c(-c2ccccc2)nn1N', '92 to 94 °C'),
  ('CN(C)Cc1cc(Cc2ccccc2)c(O)c(Cc2ccccc2)c1', '112 to 114 °C'),
  ('Cc1cccc(-c2cc(F)c3c(c2)CC(CN)O3)c1 (stereo not given)', '> 250 °C'),
  ('O=C1NCC(c2ccco2)SCC1N1C(=O)c2ccccc2C1=O (stereo not given)', '235 °C');
